Property: pIC50; scope: individual compounds
- Target: N-type calcium channel (Homo sapiens, UniProt Q00975)
- Sequence (Q00975 whole entry): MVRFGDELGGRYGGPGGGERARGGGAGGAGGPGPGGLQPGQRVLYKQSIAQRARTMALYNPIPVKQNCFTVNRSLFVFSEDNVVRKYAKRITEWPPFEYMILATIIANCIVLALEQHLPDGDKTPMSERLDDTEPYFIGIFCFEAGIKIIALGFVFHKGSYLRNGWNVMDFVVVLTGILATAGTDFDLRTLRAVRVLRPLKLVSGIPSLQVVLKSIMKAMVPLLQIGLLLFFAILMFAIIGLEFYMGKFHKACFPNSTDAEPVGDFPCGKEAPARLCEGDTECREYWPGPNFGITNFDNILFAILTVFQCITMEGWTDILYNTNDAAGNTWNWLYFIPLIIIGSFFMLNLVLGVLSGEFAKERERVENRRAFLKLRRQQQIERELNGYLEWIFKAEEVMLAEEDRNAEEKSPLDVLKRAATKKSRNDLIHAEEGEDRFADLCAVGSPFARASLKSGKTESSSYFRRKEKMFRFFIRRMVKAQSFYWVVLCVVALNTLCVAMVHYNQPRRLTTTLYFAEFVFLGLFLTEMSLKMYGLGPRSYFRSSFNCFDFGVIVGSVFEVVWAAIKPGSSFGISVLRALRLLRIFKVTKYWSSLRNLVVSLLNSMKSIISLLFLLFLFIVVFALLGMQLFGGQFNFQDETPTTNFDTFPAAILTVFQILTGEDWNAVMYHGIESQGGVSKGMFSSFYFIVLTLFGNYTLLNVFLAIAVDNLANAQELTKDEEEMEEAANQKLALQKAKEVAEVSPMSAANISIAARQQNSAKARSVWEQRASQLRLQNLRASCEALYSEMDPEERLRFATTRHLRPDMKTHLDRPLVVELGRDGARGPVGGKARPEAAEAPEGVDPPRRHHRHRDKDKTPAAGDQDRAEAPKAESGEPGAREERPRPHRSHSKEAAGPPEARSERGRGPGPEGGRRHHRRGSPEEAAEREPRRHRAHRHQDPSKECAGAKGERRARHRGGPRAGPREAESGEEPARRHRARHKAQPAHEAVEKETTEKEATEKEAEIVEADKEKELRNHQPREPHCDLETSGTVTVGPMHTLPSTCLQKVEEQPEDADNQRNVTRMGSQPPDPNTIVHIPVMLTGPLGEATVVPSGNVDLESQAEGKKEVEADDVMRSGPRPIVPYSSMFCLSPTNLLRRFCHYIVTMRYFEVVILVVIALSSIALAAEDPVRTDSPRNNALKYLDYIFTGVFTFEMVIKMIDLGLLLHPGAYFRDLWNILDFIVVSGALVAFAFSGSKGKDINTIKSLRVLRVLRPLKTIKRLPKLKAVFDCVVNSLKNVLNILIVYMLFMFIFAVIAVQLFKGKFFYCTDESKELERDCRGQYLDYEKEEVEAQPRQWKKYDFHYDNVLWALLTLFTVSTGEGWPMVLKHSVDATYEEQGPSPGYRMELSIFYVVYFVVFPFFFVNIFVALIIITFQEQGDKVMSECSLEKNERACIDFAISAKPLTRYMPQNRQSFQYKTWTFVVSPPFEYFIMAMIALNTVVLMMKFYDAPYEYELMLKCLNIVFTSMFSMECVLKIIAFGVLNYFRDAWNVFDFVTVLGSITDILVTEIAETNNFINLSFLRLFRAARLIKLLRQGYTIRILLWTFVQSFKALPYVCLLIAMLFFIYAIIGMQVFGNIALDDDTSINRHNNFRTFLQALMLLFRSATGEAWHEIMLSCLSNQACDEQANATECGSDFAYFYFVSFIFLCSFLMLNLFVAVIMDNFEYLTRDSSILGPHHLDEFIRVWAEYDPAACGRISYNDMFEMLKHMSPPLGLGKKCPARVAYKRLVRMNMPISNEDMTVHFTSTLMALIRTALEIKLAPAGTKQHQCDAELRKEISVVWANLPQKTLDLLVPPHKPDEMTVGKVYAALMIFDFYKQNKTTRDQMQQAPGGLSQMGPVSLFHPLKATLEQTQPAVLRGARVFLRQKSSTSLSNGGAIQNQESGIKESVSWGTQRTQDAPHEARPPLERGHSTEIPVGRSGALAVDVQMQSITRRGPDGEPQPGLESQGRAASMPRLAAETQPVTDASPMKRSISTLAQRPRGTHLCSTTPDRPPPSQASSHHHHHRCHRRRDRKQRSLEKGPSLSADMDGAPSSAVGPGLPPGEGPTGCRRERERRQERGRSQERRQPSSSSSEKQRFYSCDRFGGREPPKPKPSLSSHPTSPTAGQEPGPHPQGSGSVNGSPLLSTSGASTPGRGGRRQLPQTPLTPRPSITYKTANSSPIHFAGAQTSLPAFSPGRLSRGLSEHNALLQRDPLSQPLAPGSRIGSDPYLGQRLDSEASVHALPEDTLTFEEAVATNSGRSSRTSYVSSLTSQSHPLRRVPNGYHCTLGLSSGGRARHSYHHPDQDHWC
- Sequence (P54289 25-956 partner limits assumed): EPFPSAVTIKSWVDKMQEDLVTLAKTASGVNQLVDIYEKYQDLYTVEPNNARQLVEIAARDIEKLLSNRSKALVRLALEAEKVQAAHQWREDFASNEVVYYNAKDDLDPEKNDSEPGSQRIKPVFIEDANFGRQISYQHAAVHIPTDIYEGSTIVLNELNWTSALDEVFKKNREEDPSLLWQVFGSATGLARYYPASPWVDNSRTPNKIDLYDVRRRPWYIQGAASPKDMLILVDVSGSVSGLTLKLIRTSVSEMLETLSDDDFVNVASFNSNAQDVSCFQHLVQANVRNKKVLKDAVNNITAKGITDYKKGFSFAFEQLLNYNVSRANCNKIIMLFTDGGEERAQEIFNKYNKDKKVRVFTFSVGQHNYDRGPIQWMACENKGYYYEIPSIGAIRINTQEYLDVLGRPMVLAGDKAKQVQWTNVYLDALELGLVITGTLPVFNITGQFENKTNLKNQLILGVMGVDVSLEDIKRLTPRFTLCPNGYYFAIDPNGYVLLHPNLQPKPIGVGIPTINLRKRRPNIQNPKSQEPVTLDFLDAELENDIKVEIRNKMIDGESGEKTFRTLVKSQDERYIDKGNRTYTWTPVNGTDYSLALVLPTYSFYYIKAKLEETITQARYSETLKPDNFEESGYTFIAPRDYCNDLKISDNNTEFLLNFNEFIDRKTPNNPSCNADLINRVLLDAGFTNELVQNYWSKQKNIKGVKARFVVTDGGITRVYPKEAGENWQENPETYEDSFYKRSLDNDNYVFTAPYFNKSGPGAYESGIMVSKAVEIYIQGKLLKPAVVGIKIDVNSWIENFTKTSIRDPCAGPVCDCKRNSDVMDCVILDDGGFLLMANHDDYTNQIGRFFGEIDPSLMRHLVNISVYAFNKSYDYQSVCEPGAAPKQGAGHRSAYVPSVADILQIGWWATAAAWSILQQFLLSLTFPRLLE
- Sequence (P54289 957-1103 partner limits assumed): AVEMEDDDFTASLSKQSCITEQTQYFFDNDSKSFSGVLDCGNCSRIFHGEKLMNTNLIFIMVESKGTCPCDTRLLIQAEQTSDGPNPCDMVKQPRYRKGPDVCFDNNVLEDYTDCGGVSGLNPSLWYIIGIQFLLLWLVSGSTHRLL
- Sequence (Q02641 whole entry partner): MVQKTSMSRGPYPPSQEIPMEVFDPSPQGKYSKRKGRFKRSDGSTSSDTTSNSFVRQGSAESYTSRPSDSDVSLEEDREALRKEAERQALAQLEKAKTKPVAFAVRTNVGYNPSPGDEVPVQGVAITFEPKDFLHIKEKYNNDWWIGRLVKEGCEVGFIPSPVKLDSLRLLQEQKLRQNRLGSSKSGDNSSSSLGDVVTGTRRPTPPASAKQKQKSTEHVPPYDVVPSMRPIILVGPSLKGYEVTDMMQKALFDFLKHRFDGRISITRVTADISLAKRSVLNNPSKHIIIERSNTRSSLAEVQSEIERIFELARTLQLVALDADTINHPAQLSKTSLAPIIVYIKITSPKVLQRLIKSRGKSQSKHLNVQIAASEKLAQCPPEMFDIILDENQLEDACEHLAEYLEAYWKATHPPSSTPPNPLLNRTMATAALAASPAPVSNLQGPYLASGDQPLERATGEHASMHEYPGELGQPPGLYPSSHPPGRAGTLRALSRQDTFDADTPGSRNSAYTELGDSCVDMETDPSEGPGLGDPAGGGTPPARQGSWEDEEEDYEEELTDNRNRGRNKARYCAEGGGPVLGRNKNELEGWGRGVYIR
- Assay procedure: N-channel FLIPR assay
pIC50: −log10 of the molar value.
Measurement label: pIC50

Smiles str: Cc1cccc(-c2cc(N)c3ccccc3n2)c1
Op: =
Quantitative readout: 5.92

Smiles str: Nc1cc(-c2cccc(F)c2)nc2ccccc12
Op: =
Quantitative readout: 5.68

Smiles str: Nc1cc(-c2ccc(F)cc2)nc2ccccc12
Op: =
Quantitative readout: 5.47

Smiles str: CCc1c(-c2ccccc2)nc2ccccc2c1C(=O)O
Op: <
Quantitative readout: 5.00

Smiles str: COc1ccc(-c2cc(C(=O)O)c3ccccc3n2)cc1
Op: <
Quantitative readout: 5.00

Values were extracted from patent US6906193B2.
